assay: Residual lipid level in spleen of rats (UPLC-MS quantification); assay type: in vivo; details: 0.2 mg/kg, rat, intravenous, 0.2 mpk, 1 h
reported.property: concentration at 1 h (ng/g)
Give your result in ng/g as a bare value.

Request: Please give the measured concentration at 1 h for this compound: CCCCCCCCCOC(=O)CCCCCCCN(CCO)CCCCCCCC(=O)OC(CCCCCCCC)CCCCCCCC
Response: 3210

* * *

test: Residual lipid level in liver of rats (UPLC-MS quantification); assay type: in vivo; settings: liver, 0.2 mg/kg; rat, intravenous, 0.2 mpk, 1 h
reported.property: concentration at 1 h

Request: Please give the measured concentration at 1 h for this compound: CCCCCCCCCOC(=O)CCCCCCCN(CCO)CCCCCCCC(=O)OC(CCCCCCCC)CCCCCCCC
Response: 6050 ng/g

* * *

Measured concentration at 48 h, listed per entry for reference.
test: Residual lipid level in spleen of rats (UPLC-MS quantification); assay type: in vivo; conditions: rat, intravenous, 2 mg/kg, 2 mpk, 48 h, average of 3 rats, read-out: Spleen level
Give your result in ng/g as a bare value.

molecule	concentration at 48 h (ng/g)
CCCCCC=CCC=CCCCCCCCCC(CCCCCCCCC=CCC=CCCCCC)OC(=O)CCCN(C)C (centres unmarked) [MC3, reference compound]	129000

Request: Please give the measured concentration at 48 h for this molecule: CCCCCCCCC(CCCCCCCC)OC(=O)CCCCCCCN(CCO)CCCC(=O)OCCCCCC [Compound 53]
Response: 201000

Request: Please give the measured concentration at 48 h for this molecule: CCCCCCCCC(CCCCCCCC)OC(=O)CCCCCCCN(CCO)CCCC(=O)OCCCCCCC [Compound 54]
Response: 49400

Request: Please give the measured concentration at 48 h for this molecule: CCCCCCCCCOC(=O)CCCCCCCN(CCO)CCCCCCCC(=O)OC(CCCCC)CCCCCCCC (centres unmarked) [Compound 33]
Response: 287

Request: Please give the measured concentration at 48 h for this molecule: CCCCCCCCC(CCCCCCCC)OC(=O)CCCCCCCN(CCO)CCCCCCCC(=O)OCC1CC1CCCCCC (centres unmarked) [Compound 28]
Response: 551

* * *

Assay: Residual lipid level in spleen of rats (UPLC-MS quantification)
Format: in vivo
Settings: 0.2 mg/kg, rat, intravenous, 0.2 mpk, 2 h
Method: To pre-weighed tissues, Milli-Q water was added (900 μL water per 100 mg tissue). Tissues were homogenized using an Omni probe homogenizer until uniform. 50 μL of samples and matrix calibration standards were aliquoted into a 96-well plate. […] The expression of hEPO in rats intravenously administered a nanoparticle composition at a dose of 0.2 mpk or 2.0 mpk was measured at 6 hours. […] Liver and spleen levels represent the average values calculated for 3 rats in each group. […]
reported.property: concentration at 2 h (ng/g)
Give your result in ng/g as a bare value.

Request: Please give the measured concentration at 2 h for this compound: CCCCCCCCCOC(=O)CCCCCCCN(CCO)CCCCCCCC(=O)OC(CCCCCCCC)CCCCCCCC
Response: 3070

* * *

test: Residual lipid level in liver of rats (UPLC-MS quantification); format: in vivo; settings: rat, liver, iv, 0.2 mg/kg, intravenous, 0.2 mpk, 48 h, read-out: Lipid level in liver
Measured concentration at 48 h, listed per entry for reference.
Give your result in ng/g as a bare value.

compound	concentration at 48 h, ng/g
CCCCCCCCCCCOC(=O)CCCCCN(CCO)CCCCCCCC(=O)OC(CCCCCCCC)CCCCCCCC	12000

Here's the next entry for you.
Request: Please give the measured concentration at 48 h for this compound: CCCCCC=CCC=CCCCCCCCCC(CCCCCCCCC=CCC=CCCCCC)OC(=O)CCCN(C)C (centres unmarked) [MC3, reference compound]
Response: 13200
